Listing of recorded inhibition at 300 µM by entry.
molecular target: hERG (KCNH2) (Homo sapiens); assay: Inhibition of human ERG at 300 uM
Sequence (Q12809 whole entry): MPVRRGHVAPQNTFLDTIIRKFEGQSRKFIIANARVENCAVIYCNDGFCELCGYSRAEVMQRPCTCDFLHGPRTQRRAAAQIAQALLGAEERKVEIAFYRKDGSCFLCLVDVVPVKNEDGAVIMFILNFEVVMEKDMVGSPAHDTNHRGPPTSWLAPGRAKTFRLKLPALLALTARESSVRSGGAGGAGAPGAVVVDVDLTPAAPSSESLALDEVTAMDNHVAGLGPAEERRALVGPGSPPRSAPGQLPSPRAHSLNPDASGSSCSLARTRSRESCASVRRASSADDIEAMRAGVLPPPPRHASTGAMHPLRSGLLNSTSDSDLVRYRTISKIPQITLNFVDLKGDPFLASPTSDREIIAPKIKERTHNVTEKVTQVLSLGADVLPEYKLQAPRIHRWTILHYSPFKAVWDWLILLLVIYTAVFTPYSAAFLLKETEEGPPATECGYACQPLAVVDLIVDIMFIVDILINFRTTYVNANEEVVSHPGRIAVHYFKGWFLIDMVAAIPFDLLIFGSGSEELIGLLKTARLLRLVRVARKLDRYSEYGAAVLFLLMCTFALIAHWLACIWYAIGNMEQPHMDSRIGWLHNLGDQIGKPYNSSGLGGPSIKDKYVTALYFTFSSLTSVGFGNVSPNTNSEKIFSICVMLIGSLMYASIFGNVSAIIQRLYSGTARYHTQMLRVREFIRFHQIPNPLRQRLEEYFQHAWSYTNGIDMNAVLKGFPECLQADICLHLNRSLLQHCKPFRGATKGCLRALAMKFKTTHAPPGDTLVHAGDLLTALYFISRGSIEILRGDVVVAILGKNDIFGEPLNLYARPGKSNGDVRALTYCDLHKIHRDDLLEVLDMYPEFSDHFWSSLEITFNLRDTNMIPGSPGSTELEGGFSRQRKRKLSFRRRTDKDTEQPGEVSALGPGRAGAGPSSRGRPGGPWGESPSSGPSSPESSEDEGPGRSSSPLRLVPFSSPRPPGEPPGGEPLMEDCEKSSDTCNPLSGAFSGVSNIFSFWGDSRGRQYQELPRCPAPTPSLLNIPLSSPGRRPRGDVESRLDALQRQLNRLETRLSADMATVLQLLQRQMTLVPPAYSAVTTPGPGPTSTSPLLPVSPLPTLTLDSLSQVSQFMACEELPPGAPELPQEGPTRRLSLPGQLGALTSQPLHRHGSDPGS
Readout type: inhibition at 300 µM (%)

1) CC[C@H]1OC(=O)[C@H](C)[C@@H](O[C@H]2C[C@@](C)(OC)[C@@H](O)[C@H](C)O2)[C@H](C)[C@@H](O[C@@H]2O[C@H](C)C[C@H](N(C)C(C)C)[C@H]2O)[C@](C)(O)C[C@@H](C)[C@H](OCc2nccs2)[C@H](C)[C@@H](O)[C@]1(C)O ... 100
2) CC[C@H]1OC(=O)[C@H](C)[C@@H](O[C@H]2C[C@@](C)(OC)[C@@H](O)[C@H](C)O2)[C@H](C)[C@@H](O[C@@H]2O[C@H](C)C[C@H](N(C)C(C)C)[C@H]2O)[C@](C)(O)C[C@@H](C)[C@H](OCCNC(C)=O)[C@H](C)[C@@H](O)[C@]1(C)O ... 73
3) CC[C@H]1OC(=O)[C@H](C)[C@@H](O[C@H]2C[C@@](C)(OC)[C@@H](O)[C@H](C)O2)[C@H](C)[C@@H](O[C@@H]2O[C@H](C)C[C@H](N(C)C(C)C)[C@H]2O)[C@](C)(O)C[C@@H](C)[C@H](OCc2c[nH]cn2)[C@H](C)[C@@H](O)[C@]1(C)O ... 98
4) CC[C@H]1OC(=O)[C@H](C)[C@@H](O[C@H]2C[C@@](C)(OC)[C@@H](O)[C@H](C)O2)[C@H](C)[C@@H](O[C@@H]2O[C@H](C)C[C@H](N(C)C(C)C)[C@H]2O)[C@](C)(O)C[C@@H](C)[C@H](OCc2nc[nH]n2)[C@H](C)[C@@H](O)[C@]1(C)O ... 40
5) CC[C@H]1OC(=O)[C@H](C)[C@@H](O[C@H]2C[C@@](C)(OC)[C@@H](O)[C@H](C)O2)[C@H](C)[C@@H](O[C@@H]2O[C@H](C)C[C@H](N(C)C(C)C)[C@H]2O)[C@](C)(O)C[C@@H](C)[C@H](OCCNC=O)[C@H](C)[C@@H](O)[C@]1(C)O ... 47
6) CC[C@H]1OC(=O)[C@H](C)[C@@H](O[C@H]2C[C@@](C)(OC)[C@@H](O)[C@H](C)O2)[C@H](C)[C@@H](O[C@@H]2O[C@H](C)C[C@H](N(C)C(C)C)[C@H]2O)[C@](C)(O)C[C@@H](C)[C@H](OCCNC(C)C)[C@H](C)[C@@H](O)[C@]1(C)O ... 93
7) CCNC(=O)NCCO[C@@H]1[C@H](C)[C@@H](O)[C@](C)(O)[C@@H](CC)OC(=O)[C@H](C)[C@@H](O[C@H]2C[C@@](C)(OC)[C@@H](O)[C@H](C)O2)[C@H](C)[C@@H](O[C@@H]2O[C@H](C)C[C@H](N(C)C(C)C)[C@H]2O)[C@](C)(O)C[C@H]1C ... 57
8) CC[C@H]1OC(=O)[C@H](C)[C@@H](O[C@H]2C[C@@](C)(OC)[C@@H](O)[C@H](C)O2)[C@H](C)[C@@H](O[C@@H]2O[C@H](C)C[C@H](N(C)C(C)C)[C@H]2O)[C@](C)(O)C[C@@H](C)[C@H](OCCNC(=O)OC)[C@H](C)[C@@H](O)[C@]1(C)O ... 95
9) CCOC(=O)NCCO[C@@H]1[C@H](C)[C@@H](O)[C@](C)(O)[C@@H](CC)OC(=O)[C@H](C)[C@@H](O[C@H]2C[C@@](C)(OC)[C@@H](O)[C@H](C)O2)[C@H](C)[C@@H](O[C@@H]2O[C@H](C)C[C@H](N(C)C(C)C)[C@H]2O)[C@](C)(O)C[C@H]1C ... 100
10) CC[C@H]1OC(=O)[C@H](C)[C@@H](O[C@H]2C[C@@](C)(OC)[C@@H](O)[C@H](C)O2)[C@H](C)[C@@H](O[C@@H]2O[C@H](C)C[C@H](N(C)C(C)C)[C@H]2O)[C@](C)(O)C[C@@H](C)[C@H](OCCN)[C@H](C)[C@@H](O)[C@]1(C)O ... 76
11) CC[C@H]1OC(=O)[C@H](C)[C@@H](O[C@H]2C[C@@](C)(OC)[C@@H](O)[C@H](C)O2)[C@H](C)[C@@H](O[C@@H]2O[C@H](C)C[C@H](N(C)C(C)C)[C@H]2O)[C@](C)(O)C[C@@H](C)[C@H](OCc2ccncc2)[C@H](C)[C@@H](O)[C@]1(C)O ... 100
12) CCCNC(=S)NCCO[C@@H]1[C@H](C)[C@@H](O)[C@](C)(O)[C@@H](CC)OC(=O)[C@H](C)[C@@H](O[C@H]2C[C@@](C)(OC)[C@@H](O)[C@H](C)O2)[C@H](C)[C@@H](O[C@@H]2O[C@H](C)C[C@H](N(C)C(C)C)[C@H]2O)[C@](C)(O)C[C@H]1C ... 100
13) CC[C@H]1OC(=O)[C@H](C)[C@@H](O[C@H]2C[C@@](C)(OC)[C@@H](O)[C@H](C)O2)[C@H](C)[C@@H](O[C@@H]2O[C@H](C)C[C@H](N(C)C(C)C)[C@H]2O)[C@](C)(O)C[C@@H](C)[C@H](OCCNS(C)(=O)=O)[C@H](C)[C@@H](O)[C@]1(C)O ... 79
14) CC[C@H]1OC(=O)[C@H](C)[C@@H](O[C@H]2C[C@@](C)(OC)[C@@H](O)[C@H](C)O2)[C@H](C)[C@@H](O[C@@H]2O[C@H](C)C[C@H](N(C)C(C)C)[C@H]2O)[C@](C)(O)C[C@@H](C)[C@H](OCc2csc(C)n2)[C@H](C)[C@@H](O)[C@]1(C)O ... 100

Numbers sourced from ChEMBL document CHEMBL1268902.
